# Tested on: S. aureus ATCC 25923
# Assay Protocol: microbe, parasite or virus in culture
# Assay type: cell-based
# Condition Info: ATCC 25923
Bridge positions count the residues as written; N and C are the ends. Square brackets hold non-standard residues; d marks the D form. Peptide text beside a SMILES is read from it.

Molecule	MIC [µM]
CC[C@H](C)[C@H](NC(=O)[C@H](CCCNC(=N)N)NC(=O)[C@H]1CCC(=O)NCCCC[C@H](NC(=O)[C@H](Cc2ccccc2)NC(=O)[C@H](Cc2c[nH]c3ccccc23)NC(=O)[C@@H]2CCCN2C(=O)[C@@H](NC(=O)[C@@H](N)Cc2ccccc2)C(C)C)C(=O)N[C@@H](CCCNC(=N)N)C(=O)N[C@@H](Cc2ccccc2)C(=O)N[C@H](CC(C)C)C(=O)N1)C(=O)N[C@@H](CC(C)C)C(N)=O [Peptide 9, FVPWF[KRFle]RIL] (H-FVPWFKRF[dL][dE]RIL-NH2; lactam 6-10)	6.25
CC[C@H](C)[C@H](NC(=O)[C@H](CCCNC(=N)N)NC(=O)[C@@H]1CCCCNC(=N)NCCCC[C@H](NC(=O)[C@H](Cc2ccccc2)NC(=O)[C@H](Cc2c[nH]c3ccccc23)NC(=O)[C@@H]2CCCN2C(=O)[C@@H](NC(=O)[C@@H](N)Cc2ccccc2)C(C)C)C(=O)N[C@@H](CCCCN)C(=O)N[C@@H](Cc2ccccc2)C(=O)N[C@H](CC(C)C)C(=O)N1)C(=O)N[C@@H](CC(C)C)C(N)=O [Peptide 11, FVPWF{KKFlK}RIL]	3.12
